biological target: wild type AR (Homo sapiens, UniProt P10275); construct: expressed in transfected cells; host or cells: CV-1; assay: MMTV-luciferase transcription assay in CV-1 cells, wild type AR; type: cell-based; conditions: CV1 transient transfection, MMTV-Luciferase reporter; read-out: IC50 WT
Sequence (P10275 whole entry): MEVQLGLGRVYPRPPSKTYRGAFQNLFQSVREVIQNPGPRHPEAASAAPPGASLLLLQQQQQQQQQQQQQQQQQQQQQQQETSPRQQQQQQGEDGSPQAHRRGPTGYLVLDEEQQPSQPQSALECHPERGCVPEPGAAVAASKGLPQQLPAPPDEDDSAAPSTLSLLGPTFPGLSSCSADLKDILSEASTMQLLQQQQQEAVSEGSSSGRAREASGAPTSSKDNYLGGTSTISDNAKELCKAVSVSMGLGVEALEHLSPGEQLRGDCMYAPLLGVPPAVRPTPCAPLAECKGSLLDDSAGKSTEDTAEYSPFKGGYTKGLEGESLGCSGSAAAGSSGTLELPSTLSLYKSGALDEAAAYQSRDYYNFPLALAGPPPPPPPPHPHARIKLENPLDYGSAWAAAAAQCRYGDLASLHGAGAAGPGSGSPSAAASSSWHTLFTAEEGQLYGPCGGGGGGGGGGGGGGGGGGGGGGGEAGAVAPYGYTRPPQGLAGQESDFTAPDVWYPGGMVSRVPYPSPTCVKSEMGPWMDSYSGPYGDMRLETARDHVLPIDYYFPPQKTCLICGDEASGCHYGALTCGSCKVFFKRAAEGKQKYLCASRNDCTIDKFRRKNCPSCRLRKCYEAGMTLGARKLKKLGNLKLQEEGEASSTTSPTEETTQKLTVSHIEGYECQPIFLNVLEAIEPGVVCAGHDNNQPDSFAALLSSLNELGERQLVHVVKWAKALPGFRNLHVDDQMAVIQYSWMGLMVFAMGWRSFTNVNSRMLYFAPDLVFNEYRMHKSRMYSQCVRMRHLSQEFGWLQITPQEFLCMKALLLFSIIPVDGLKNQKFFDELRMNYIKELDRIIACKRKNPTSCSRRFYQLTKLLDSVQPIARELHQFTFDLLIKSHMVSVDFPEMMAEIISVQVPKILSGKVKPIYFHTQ
readout.type: IC50

IN: What does the data say about its IC50? Entry: "CNc1cc([C@H]2[C@H](c3ccccc3)[C@H](c3cc(NC)nc(NC)n3)[C@H]2c2ccccc2)nc(NC)n1"
OUT: > 20 µM

###

molecular target: T877A (LNCaP) AR (Homo sapiens, UniProt P10275, T878A); construct: expressed in transfected cells; host or cells: CV-1; assay: MMTV-luciferase transcription assay in CV-1 cells, T877A AR; format: cell-based; details: CV1 transient transfection, MMTV-Luciferase reporter; read-out: IC50 T877A
Sequence (P10275 whole entry T878A): as the sequence (P10275 whole entry) above, with T878A counted along it
readout.type: pIC50
One number for each entry, as −log10 of the molar value.

IN: What does the data say about its pIC50? Entry: COc1cc([C@H]2[C@H](c3ccccc3)[C@H](c3cc(OC)nc(OC)n3)[C@H]2c2ccccc2)nc(OC)n1 [CB-22]
OUT: 6.09

###

Molecular target: T877A (LNCaP) AR (Homo sapiens, UniProt P10275, T878A)
Construct: expressed in transfected cells; host or cells: CV-1
Test: MMTV-luciferase transcription assay in CV-1 cells, T877A AR
Assay type: cell-based
Details: MMTV transcription assay in CV-1 cells, compared with 1
Description: These compounds were screened using an AR-responsive MMTV transcription assay in CV-1 cells, utilizing both wild type and T877A (LNCaP) AR. […]
readout.type: AR antagonism, potency in words (structure-activity discussion)

{"molecule": "COc1cncc([C@H]2[C@H](c3ccccc3)[C@H](c3cncc(OC)n3)[C@H]2c2ccccc2)n1 [DPM-18]", "reported.value": "decreased activity"}
{"molecule": "COc1cncc([C@H]2[C@H](c3ccccc3)[C@@H](c3cncc(OC)n3)[C@H]2c2ccccc2)n1 [DPM-17]", "reported.value": "decreased activity"}

###

target: W741C AR (Homo sapiens, UniProt P10275, W742C); assay: MMTV-luciferase transcription assay in CV-1 cells, W741C AR
Sequence (P10275 whole entry W742C): as the sequence (P10275 whole entry) above, with W742C counted along it
readout.type: IC50
Write down the value, and be sure its unit follows.

IN: What does the data say about its IC50? Entry: COc1cc([C@H]2[C@H](c3ccccc3)[C@H](c3cc(OC)nc(OC)n3)[C@H]2c2ccccc2)nc(OC)n1 [CB-22]
OUT: 2.36 µM

###

target: AR (Homo sapiens, UniProt P10275); assay: AR relative binding affinity (RBA)
readout.type: AR RBA (%)
One number for each entry, in %.

{"mol.smiles": "COc1cc([C@H]2[C@@H](c3ccccc3)[C@@H](c3cc(=O)[nH]c(=O)[nH]3)[C@@H]2c2ccccc2)nc(OC)n1", "AR RBA [%]": 0.065}
{"mol.smiles": "COc1cc([C@H]2[C@H](c3ccccc3)[C@@H](c3cc(OC)nc(OC)n3)[C@H]2c2ccccc2)nc(OC)n1", "AR RBA [%]": 0.046}
{"mol.smiles": "CSc1cc([C@H]2[C@H](c3ccccc3)[C@H](c3cc(SC)nc(SC)n3)[C@H]2c2ccccc2)nc(SC)n1", "AR RBA [%]": 0.002}
{"mol.smiles": "Cc1cc([C@H]2[C@H](c3ccccc3)[C@H](c3cc(C)nc(C)n3)[C@H]2c2ccccc2)nc(C)n1", "AR RBA [%]": 0.027}
{"mol.smiles": "O=c1cc([C@H]2[C@H](c3ccccc3)[C@@H](c3cc(=O)[nH]c(=O)[nH]3)[C@H]2c2ccccc2)[nH]c(=O)[nH]1", "AR RBA [%]": 0.023}

// input: 2 molecules below; output: AR RBA for each
1. CSc1cc([C@H]2[C@H](c3ccccc3)[C@@H](c3cc(SC)nc(SC)n3)[C@H]2c2ccccc2)nc(SC)n1
2. COc1cc([C@H]2[C@H](c3ccccc3)[C@H](c3cc(OC)nc(OC)n3)[C@H]2c2ccccc2)nc(OC)n1

OUT:
0.027
0.056

// input: 2 molecules below; output: AR RBA for each
1. COc1cc([C@H]2[C@@H](c3ccccc3)[C@H](c3cc(=O)[nH]c(=O)[nH]3)[C@@H]2c2ccccc2)nc(OC)n1
2. CCc1cc([C@H]2[C@H](c3ccccc3)[C@H](c3cc(CC)nc(CC)n3)[C@H]2c2ccccc2)nc(CC)n1

OUT:
1. 0.087
2. 0.029
